# credit: patent US7375083B2

Experiment: Crossover pharmacokinetics in dogs, oral vs 30-min intravenous infusion, LC-MS/MS
Format: in vivo, male beagle dogs
Conditions: male, beagle, dog, plasma, iv, 2 mg/kg, male beagle dogs 1-3 and Mean; 30-min iv infusion; 2 mg/kg/h (free form); read-out: Cmax of L-lysine-d-amphetamine
recordedMetric: Cmax (ng/mL)
Record the value in ng/mL, omitting the unit from your answer.

Problem: Please look at this compound and report its Cmax: CC(Cc1ccccc1)NC(=O)C(N)CCCCN (stereo not shown)
Solution: 1650

* * *

Assay: Intranasal bioavailability of hydrocodone conjugates in rats, LC/MS/MS
Conditions: male, Sprague-Dawley, rat, plasma, other: intranasal, 1 mg/kg
recordedMetric: concentration at 15 min

Problem: Please look at this compound and report its concentration at 15 min: COc1ccc2c3c1O[C@H]1C(=O)CC[C@H]4[C@@H](C2)N(C)CC[C@]314 [Hydrocodone, reference compound]
Solution: 543 ng/mL
